Where do the numbers come from? From patent US20160106102A1.

- Test system: Phaedon cochleariae
- assay_procedure: Phaedon cochleariae - spray test (PHAECO)
- Assay type: in vivo
- test_conditions: application rate of 500 g/ha; after 7 days; larvae of the mustard beetle on sprayed Chinese cabbage leaf discs; 100% = all larvae killed
Listed here: items and their measured efficacy in %.
The answer is to be given in %; state only the numeric part.

Take a look at these entries with their results.
compound="Cc1cc(N(C)C(=O)c2cccnc2)nn1Cc1ncccn1 [Compound I-1-346]" study_target="Phaedon cochleariae" result_unit=% numeric_result=100
compound="Cc1cc(N(C(=O)c2cccnc2)C(=O)c2cccc(Cl)c2)nn1C(=O)c1cccc(Cl)c1 [Compound I-1-22]" study_target="Phaedon cochleariae" result_unit=% numeric_result=83
compound="CCCC(=O)n1nc(NC(=O)c2cccnc2)cc1C [Compound I-1-131]" study_target="Phaedon cochleariae" result_unit=% numeric_result=100
compound="Cc1cc(NC(=O)c2cccnc2)nn1C(=O)C(C)C [Compound I-1-130]" study_target="Phaedon cochleariae" result_unit=% numeric_result=100

Now consider a different compound.
Ask | Data request, read-out efficacy in %, for O=C(Nc1ccn(-c2ncccc2Cl)n1)c1cccnc1 [Compound I-1-48]
Reply | 100

###

- assay_procedure: log P determination by LC-MS in the acidic range
- Assay type: physicochemical
- test_conditions: LC-MS in the acidic range
observed_property: log P (acid)
A bare number is all that is needed in reply.

Take a look at these entries with their results.
compound="Cn1nc(NC(=O)c2cncc(F)c2)cc1C(F)F [Compound I-1-222]" numeric_result=1.51
compound="Cc1cc(NC(=O)c2cccnc2)nn1Cc1ncc(Cl)cn1 [Compound I-1-195]" numeric_result=1.23
compound="O=C(Nc1ccn(Cc2ncccn2)n1)c1cccnc1 [Compound I-1-9]" numeric_result=0.42
compound="CCC(C)n1nc(NC(=O)c2cccnc2)cc1C (centres unmarked) [Compound I-1-205]" numeric_result=1.59
compound="Cc1cc(NC(=O)c2cccnc2)nn1C[S+]([O-])c1ncccn1 (centres unmarked) [Compound I-1-235]" numeric_result=0.5

Ask | Data request, read-out log P (acid), for Cc1cc(NC(=O)c2cccnc2)nn1C(=O)NCC1CC1 [Compound I-1-316]
Reply | 1.65

Ask | Data request, read-out log P (acid), for Cc1cc(NC(=O)c2cccnc2)nn1Cc1ccc(F)cc1 [Compound I-1-62]
Reply | 1.88

Ask | Data request, read-out log P (acid), for O=C(Nc1ccn(Cc2ccc(F)cc2F)n1)c1cccnc1 [Compound I-1-76]
Reply | 1.68

Ask | Data request, read-out log P (acid), for CSCCC(=O)n1nc(NC(=O)c2cccnc2)cc1C [Compound I-1-266]
Reply | 1.87

Ask | Data request, read-out log P (acid), for COC(=O)C(C)(C)NC(=O)Cn1nc(NC(=O)c2cccnc2)cc1C [Compound I-1-32]
Reply | 0.72

Ask | Data request, read-out log P (acid), for Cc1cnn(Cn2nc(NC(=O)c3ccnnc3)cc2C)c1 [Compound I-1-256]
Reply | 1.1

Ask | Data request, read-out log P (acid), for N#Cc1ccccc1Cn1ccc(NC(=O)c2cccnc2)n1 [Compound I-1-89]
Reply | 1.37

Ask | Data request, read-out log P (acid), for Cc1cc(NC(=O)c2cccnc2)nn1-c1ccccn1 [Compound I-1-230]
Reply | 2.19

Ask | Data request, read-out log P (acid), for COc1cc(OC)nc(Cn2nc(NC(=O)c3ccnnc3)cc2C)n1 [Compound I-1-252]
Reply | 1.5

Ask | Data request, read-out log P (acid), for Cc1cc(NC(=O)c2cccnc2)nn1C(=O)N1CCCC1 [Compound I-1-161]
Reply | 1.29

Ask | Data request, read-out log P (acid), for Cc1cc(NC(=O)c2cccnc2)nn1C(=O)NC(C)C(F)(F)F (centres unmarked) [Compound I-1-307]
Reply | 1.89

Ask | Data request, read-out log P (acid), for Cc1cc(NC(=O)c2cccnc2)nn1C(=O)NC(C)c1ccccc1 (centres unmarked) [Compound I-1-331]
Reply | 2.22

Ask | Data request, read-out log P (acid), for COc1nn(Cn2nc(NC(=O)c3ccnnc3)cc2C)c(=O)n1C1CC1 [Compound I-1-152]
Reply | 1.17

Ask | Data request, read-out log P (acid), for Cc1cc(NC(=O)c2cccnc2)nn1Cc1nc2cc(Cl)ccc2o1 [Compound I-1-340]
Reply | 2

###

Listed here: items and their measured efficacy (kill in %).
- System: Myzus persicae
- assay_procedure: Myzus persicae - sachet test
- Format: in vivo
- test_conditions: application rate of 30 ppm in nutrient medium; 100% = all animals killed
The answer is to be given in %; state only the numeric part.

Take a look at these entries with their results.
molecule="O=C(Nc1cnn(-c2ncc(C(F)(F)F)cc2Cl)n1)c1cccnc1 [Compound I-3-5]" numeric_result=100
molecule="Cc1cc(NC(=O)c2cccnc2)nn1Cn1nc(C)n(C)c1=O [Compound I-1-143]" numeric_result=100
molecule="Cc1cc(NC(=O)c2cncc(F)c2)nn1-c1ccccc1 [Compound I-1-350]" numeric_result=80
molecule="Cc1cc(NC(=O)c2cccnc2)nn1Cc1ccc2nsnc2c1 [Compound I-1-339]" numeric_result=100
molecule="CCOC(=O)Cn1nc(NC(=O)c2cccnc2)cc1C [Compound I-1-24]" numeric_result=100
molecule="O=C(Nc1ccn(Cc2cccc(C(F)(F)F)c2)n1)c1ccc(Cl)nc1 [Compound I-1-87]" numeric_result=100

Ask | Data request, read-out efficacy (kill in %), for Cc1cc(NC(=O)c2cccnc2)nn1CC1CC1(Cl)Cl (stereo not shown) [Compound I-1-237]
Reply | 100

Ask | Data request, read-out efficacy (kill in %), for C#CCN(C(=O)c1cccnc1)c1cc(C)n(Cc2ncccn2)n1 [Compound I-1-264]
Reply | 100

Ask | Data request, read-out efficacy (kill in %), for Cc1cc(NC(=O)c2cccnc2)nn1CCS(C)(=O)=O [Compound I-1-182]
Reply | 100

Ask | Data request, read-out efficacy (kill in %), for Cc1cc(N(Cc2nc(-c3ccccc3)no2)C(=O)c2cccnc2)nn1Cc1nc(-c2ccccc2)no1 [Compound I-1-305]
Reply | 100

Ask | Data request, read-out efficacy (kill in %), for Cn1nnc(NC(=O)c2cccnc2)n1 [Compound I-4-2]
Reply | 100

Ask | Data request, read-out efficacy (kill in %), for Cc1cc(C)nc(-n2nc(NC(=O)c3cccnc3)cc2C)n1 [Compound I-1-139]
Reply | 100

Ask | Data request, read-out efficacy (kill in %), for Cc1cc(N(C)C(=O)c2cccnc2)nn1CC[S+](C)[O-] (stereo not shown) [Compound I-1-186]
Reply | 100

Ask | Data request, read-out efficacy (kill in %), for Cc1cc(NC(=O)c2cccnc2)nn1C(=O)NC(C)c1ccc(F)cc1 (stereo not shown) [Compound I-1-332]
Reply | 100

###

- assay_procedure: log P determination by LC-MS in the acidic range
- Assay type: physicochemical
- test_conditions: LC-MS in the acidic range
Listed here: items and their measured log P (acid).
A bare number is all that is needed in reply.

Take a look at these entries with their results.
chem_smiles=Cc1cc(NC(=O)c2cccnc2)nn1C=C(F)c1ccc(Cl)cn1 observed_property="log P (acid)" numeric_result=2.31
chem_smiles=Cc1cc(C)nc(Cn2nc(NC(=O)c3cccnc3)cc2C)n1 observed_property="log P (acid)" numeric_result=1.2
chem_smiles=Cc1cc(NC(=O)c2cccnc2)nn1C(=O)NCc1ccccc1F observed_property="log P (acid)" numeric_result=2.04
chem_smiles=COCn1nc(N(C)C(=O)c2cccnc2)cc1C observed_property="log P (acid)" numeric_result=0.7

Ask | Data request, read-out log P (acid), for "CC(C)(C)c1ccc(Cn2ccc(NC(=O)c3cccnc3)n2)cc1"
Reply | 2.68

Ask | Data request, read-out log P (acid), for "Cc1cc(NC(=O)c2cccnc2)nn1-c1ccccc1Cl"
Reply | 1.86

###

- assay_procedure: log P determination by LC-MS in the acidic range
- Format: physicochemical
- test_conditions: pH 2.7, values given in the synthesis examples and NMR lists; read-out: HPLC-MS: log P
Cut-off 1 on chromatographic logP, inclusive. At or above means satisfied; below means not satisfied.

Examples from the recorded data:
molecule="Nc1cc(Br)n(Cc2ncccn2)n1 [II-1-30]" qualitative_label="not satisfied"
molecule=Cc1cn(Cc2ncccn2)nc1N1C(=O)c2ccccc2C1=O qualitative_label=satisfied
molecule=Cc1cc(NC(=O)OC(C)(C)C)nn1Cc1ncccn1 qualitative_label=satisfied
molecule="Cc1cc(NC(=O)c2cncc(F)c2)nn1Cc1ncccn1 [Compound I-1-7]" qualitative_label=satisfied
molecule="Cc1cc(NC(=O)c2cccnc2)nn1-c1ncccn1 [Compound I-1-23]" qualitative_label=satisfied
molecule=Cc1c[nH]nc1N1C(=O)c2ccccc2C1=O qualitative_label=satisfied
molecule="CCSCn1nc(NC(=O)c2cccnc2)cc1C [Compound I-1-242]" qualitative_label=satisfied
molecule=O=C1c2ccccc2C(=O)N1c1cc(Br)n(Cc2ncccn2)n1 qualitative_label=satisfied
molecule="CCc1cc(NC(=O)c2cccnc2)nn1Cc1ccccc1 [Compound I-1-35]" qualitative_label=satisfied
molecule="COC(=O)c1cc(NC(=O)c2cncc(F)c2)nn1C [Compound I-1-134]" qualitative_label=satisfied

Ask | Entry "CCSCn1nc([N+](=O)[O-])cc1C" : is its chromatographic logP no less than 1?
Reply | satisfied

Ask | Entry "Cc1cn(Cc2ncccn2)nc1N" : is its chromatographic logP no less than 1?
Reply | not satisfied

Ask | Entry Cn1nc(NC(=O)c2cncc(F)c2)cc1OC(F)F [Compound I-1-112] : is its chromatographic logP no less than 1?
Reply | satisfied

Ask | Entry Nc1ccn(Cc2ncc(C(F)(F)F)cc2Cl)n1 [II-1-8] : is its chromatographic logP no less than 1?
Reply | satisfied

Ask | Entry "Cc1cc(C(=O)O)nn1Cc1ncccn1" : is its chromatographic logP no less than 1?
Reply | not satisfied

Ask | Entry CCS(=O)(=O)Cn1nc(NC(=O)c2cccnc2)cc1C [Compound I-1-246] : is its chromatographic logP no less than 1?
Reply | not satisfied

Ask | Entry Cc1cc(N)nn1Cc1ncccn1 [II-1-23] : is its chromatographic logP no less than 1?
Reply | not satisfied

Ask | Entry "Cc1cc(N)nn1C(=O)OC(C)(C)C" : is its chromatographic logP no less than 1?
Reply | satisfied

Ask | Entry "Cc1cc([N+](=O)[O-])nn1-c1ncccn1" : is its chromatographic logP no less than 1?
Reply | satisfied

Ask | Entry O=C(Nc1cc(Br)n(Cc2ncccn2)n1)c1cccnc1 [Compound I-1-140] : is its chromatographic logP no less than 1?
Reply | satisfied

Ask | Entry Cc1cc(NC(=O)c2cccnc2)nn1C(=O)c1ccccc1Cl [Compound I-1-122] : is its chromatographic logP no less than 1?
Reply | satisfied

Ask | Entry "O=[N+]([O-])c1ccn(Cc2ncc(C(F)(F)F)cc2Cl)n1" : is its chromatographic logP no less than 1?
Reply | satisfied

Ask | Entry CCSCn1nc(N)cc1C [II-1-61] : is its chromatographic logP no less than 1?
Reply | not satisfied

Ask | Entry "Cc1cc(N)nn1-c1ncccn1" : is its chromatographic logP no less than 1?
Reply | not satisfied
